Measurement notes: Effect on duodenal peptic ulcer induced by acetic acid (Okabe et al.)
Assay type: in vivo
Condition info: Rattus norvegicus, po, 240 h, oral 100 mg/kg/day, three times a day for 10 days, vs control group, read-out: Rate of curation of peptic ulcer
We begin with a simple list: items and their reported inhibition in vivo at 100 mg/kg/day.
Provide only the numeric value, understood in %.

Answered cases to consult:
• CN(C)c1ccc(C2NC(=O)CS2)cc1 (stereo not drawn) = 88
• O=C1CSC(c2ccccc2C(=O)O)N1 (stereo not drawn) = 60

Recorded inhibition in vivo at 100 mg/kg/day for COc1cccc(C2NC(=O)CS2)c1 (stereo not drawn) , please? 73.3

Every entry's value here was drawn from patent US4540702A.
